test system: Staphylococcus aureus; settings: mixed-species biofilms grown 22 hours, 20 hours of treatment
MIC S. aureus by entry:
Use µg/mL as the unit, but write only the number.

CCCCCCCCNCCC[C@@H](C)[C@H]1CC[C@H]2[C@@H]3[C@H](OCCCN)C[C@@H]4C[C@H](OCCCN)CC[C@]4(C)[C@H]3C[C@H](OCCCN)[C@]12C    0.78
CCCCCCCCCOC(=O)CCC(C)C1CCC2C3C(OC(=O)CCN)CC4CC(OC(=O)CCN)CCC4(C)C3CC(OC(=O)CCN)C12C.Cl.Cl.Cl (stereo not drawn)    3.125

# input Hello, please tell me recorded MIC S. aureus for this one: CC(CCCOCCCN)C1CCC2C3C(OCCCN)CC4CC(OCCCN)CCC4(C)C3CC(OCCCN)C12C.Cl.Cl.Cl.Cl (stereo not drawn)
# output 1.56

###

test system: Staphylococcus aureus; conditions: mixed-species biofilms grown 22 hours, 20 hours of treatment
MIC S. aureus by entry:
Use µg/mL as the unit, but write only the number.

CCCCCCCCNC(=O)CCC(C)C1CCC2C3C(OCCCN)CC4CC(OCCCN)CCC4(C)C3CC(OCCCN)C12C.Cl.Cl.Cl (centres unmarked)    0.78
CCCCCCCCCCCCNCCC[C@@H](C)[C@H]1CC[C@H]2[C@@H]3[C@H](OCCCN)C[C@@H]4C[C@H](OCCCN)CC[C@]4(C)[C@H]3C[C@H](OCCCN)[C@]12C.Cl.Cl.Cl.Cl    0.78
CCCCCCOC(=O)CCC(C)C1CCC2C3C(OC(=O)CCN)CC4CC(OC(=O)CCN)CCC4(C)C3CC(OC(=O)CCN)C12C.Cl.Cl.Cl (centres unmarked)    3.125
CCCCCCCCOC(=O)CC[C@@H](C)[C@H]1CC[C@H]2[C@@H]3[C@H](OC(=O)CCN)C[C@@H]4C[C@H](OC(=O)CCN)CC[C@]4(C)[C@H]3C[C@H](OC(=O)CCN)[C@]12C    1.56
CC(O)C1CCC2C3C(OCCCN)CC4CC(OCCCN)CCC4(C)C3CC(OCCCN)C12C.Cl.Cl.Cl (mixture of isomers)    50
CCCCCCCCCCOC(=O)CCC(C)C1CCC2C3C(OC(=O)CCN)CC4CC(OC(=O)CCN)CCC4(C)C3CC(OC(=O)CCN)C12C.Cl.Cl.Cl (centres unmarked)    3.125
C[C@H](CCCNCCCNCCCN)[C@H]1CC[C@H]2[C@@H]3[C@H](OCCCN)C[C@@H]4C[C@H](OCCCN)CC[C@]4(C)[C@H]3C[C@H](OCCCN)[C@]12C.Cl.Cl.Cl.Cl.Cl.Cl    6.25

We now examine a further compound.
# input Hello, please tell me recorded MIC S. aureus for this one: CCCCCN(CCCCC)CCC[C@@H](C)[C@H]1CC[C@H]2[C@@H]3[C@H](OCCCN)C[C@@H]4C[C@H](OCCCN)CC[C@]4(C)[C@H]3C[C@H](OCCCN)[C@]12C
# output 1.56

The reported measurements were obtained from patent US20180272034A1.
